- Test Summary: soluble on expression in E. coli; label from the status in PepcDB or PDB records

Sequence Chain: MGSDKIHHHHHHMGIHLDFGISPKTFRQTYLYQKPKLFKGAVRNLEAASCKYINEIYQRADPTAPLFHLRKKGAIVPKEEYVESFDDLGKTRYRFIKSVIYEHMKNGASLVYNHINNEPFSDHIARQVARFAGAHTIVSGYLAFGSDESYKNHWDTRDVYAIQLFGKKRWQLTAPDFPMPLYMQQTKDTDISIPEHIDMDIILEAGDVLYIPRGWWHRPIPLGCETFHFAVGTFPPNGYNYLEWLMKKFPTIESLRHSFSDWEQDRTRINDTAAQIAAMIADPVNYEAFSEDFLGKERTDTAFHLEQFANPNATPLSDDVRLRLNANNLDTLEKGYLIGNGMKISVDELGKKVLEHIGKNEPLLLKNLLVNFNQAKHEEVRKLIYQLIELDFLEIL
soluble on expression in E. coli: not soluble
//
Sequence Chain: MEDEIKSFEKDRNLIIEDSKNSKNNIVDVQKLIEALKDEKNAKNIVVDFTEYNPLHNGHKYCMDFGKSEGLFISVIPGPLERSGRGIPYLVNRHIRAEMALLAGADLVVEGPPMGIMGSGQYMQCLIKIFSALNGDIIPRGYIEEETMERVINSINNGNHIKIKPYNISCIETREKLGEKLEIDNYVIASMSYTIYKLKENFPKWNPKFKFIERIEGISGTKIREGVFNNNFESIKHMLPITTIDVFKNFGDNLSEIILKRNEEMVLDTVNNFDLNKYLPENISEKLNEKEYYESIEEIKEYIPRGFSKNNIERTISKLEARIEKETISKYIENYPANLRILNGINNHE
soluble on expression in E. coli: not soluble

---

- Test Summary: soluble on expression in E. coli; label from the status in PepcDB or PDB records

Sequence Chain: SNAMIYPYKEKKPKIASSAFIADYVTITGDVYVGEESSIWFNTVIRGDVSPTIIGDRVNVQDQCTLHQSPQYPLILEDDVTVGHQVILHSCHIKKDALIGMGSIILDGAEIGEGAFIGAGSLVSQGKKIPPNTLAFGRPAKVIRELTAEDRKDMERIRTQYVEKGQYYKSLQK
soluble on expression in E. coli: soluble

Sequence Chain: MQLRSVIAADHPALFALWSRTPGIRLRAEDAYPFFLAYLQRNPGLSLLVETEGEVIACLMAGHDGRRGYLQHLVVDPGYRGLGLARRMLDEVLARLAREGIGKSHVFVLDAAEEAQAFWRAQSDWERRKDIQVFSTREGHA
soluble on expression in E. coli: soluble

Sequence Chain: TIVKSEIIRKLMDAKKFLLDGYIDEGVKIVLEITKSSTKSEYNWFICNLLESIDCRYMFQVLDKIGSYFDLDKCQNLKSVVECGVINNTLNEHVNKALDILVIQGKRDKLEEIGREILKNNEVSASILVAIANALRRVGDERDATTLLIEACKKGEKEACNAVNTLTVRSVM
soluble on expression in E. coli: soluble

---

- Test Summary: soluble on expression in E. coli; label from the status in PepcDB or PDB records
Measured Property: soluble on expression in E. coli

Sequence Chain: MGSDKIHHHHHHMLELLEPIAIFTHVARAGSFSAAARRLGISKSKVSTQVADLEHRLGVQLIQRTTRSLSLTEAGHLLYLQGEELLRDAEQAIASVHNLNDATRGVLKVGISQSFGVMHIIPALPSFMAKHPELELQVSLLDHKVDVVSEGLDLLLTMSEQLPLGMVARPLMKCQFLLVASPGYIAQHGEPTRPEQLVDHNCLVYQGEWHEHSMWQFKKGDDYCEIGVSGNFRVDNAPALKSAAISGLGVVYLASYLMEDEITKGTLVPLLKDWQLTHHLPLQAVYPRRKHLAPKVSSFIEFIKDHIGTPPYWDAPYVELFSKRQ
Data Value: not soluble
//
Sequence Chain: MYINNKLTEDLLLGEIYYLISKTYFFIENIQKAINFAFLAKSEFEKVYNKKAYAKSLELLAEEHAKVGDLESAIAYSKQSLNVYKELEQLDKISSIEDSLGKLFFEFDNIEESFEHYNRAIKIREENTDSKLLDTLFNLCENHIKTKNMNKCIEILNEIKNKLNVSDVNRLIEYKILTFRIEVLQNNIKEAENILLDTLEIAKRNDMKKKEADISIRLGKFYLELKRDYEAAKYLDKGINNLKNLGVIKSLEHHHHHH
Data Value: not soluble

---

- Test Summary: soluble on expression in E. coli; label from the status in PepcDB or PDB records
Measured Property: soluble on expression in E. coli

Some solved entries appear below for comparison.
Sequence Chain: GPGSMASNITAERYEQLKKERTFHKFTYRGLEIDPLLALSEEEFKALVHARARRNMNRHADRRPPVLLKRLREAKKHVKVGEKPKAVKTHLRDVVITPEMVGSVVAIYNGHQFNAVEIKGEMIGHYLGEFSMSYRPVLHGRPGVGATHSSRFIPIK
soluble on expression in E. coli: soluble
--
Sequence Chain: MATANEHLVAWLRDAHAMEEQAITMLTSQSSRLENYPELKTRIDRHLQETKDQAAMLERCLERLDGGTSSIKDISGKIVAFGQGLSGLFVSDEVVKGTLASYTFEHMEIASYRILIAAAEQAGDQETKRVCESILQQEIAMAEWLAQNAGEITRKFLERDQRDVTAKH
soluble on expression in E. coli: not soluble
--
Sequence Chain: VIVYGDYNNDGNVDALDFAGLKKYIMAADHAYVKNLDVNLDNEVNSTDLAILKKYLLGMVSKLPSN
soluble on expression in E. coli: soluble
--
Sequence Chain: IAPTVWKLADRSKIYMADLESALHYILRIEVGRFPVLEGQRLVALKKFVAVLAKYFPGRPLVQNFLHSVNEWLKRQKRNKIPYSFFKTALDDRKEGAVLAKKVNWIGCQGSEPHFRGFPCSLWVLFHFLTVQAARQNVDHSQEAAKAKEVLPAIRGYVHYFFGCRDCASHFEQMAAASMHRVGSPNAAVLWLWSSHNRVNARLAGAPSEDPQFPKVQWPPRELCSACHNERLDVPVWDVEATLNFLKAHFSPSNIILDFPA
soluble on expression in E. coli: soluble
--
Sequence Chain: MGSDKIHHHHHHMQNTSYIALSRQAALWRQMEVVANNMANANTPAFKGEEMMFREFLVPTRSSERAIGGKLAFVQDVGVLRDTREGPLTKTDNPLDFALHGDGYFQIETEAGMRYARNGHFRLDQTGMLVNSQGYAVMDDRDQPIVFAPNETRVEVASDGTVSTENGRVARMKVVKFENDQLLRKAGDSLFETTQDPEAVQSPNVAQGMMEESNVQPVLEMTRMTQILREYQGVQKMLDAEHERQLKAIQTLGSSKTN
soluble on expression in E. coli: not soluble

Q) I have this sequence here, MSGALKENSGKPSEVEYTHFKDLQALEMERGRLYETIVVTWDDSMVGNAAPIGVLCTGDDTVTLYLYQGTRTVENVLNNGRFTVNVTLDPLIFTDSTLGDLEEDMFSHYRDFLHLRGADAFFTAEVVSVKKLVKRDRFGESELHVVKARAGDVMRAESFRMALNRGIYAVIESLIAYTRAEFSDPLVLRERIAEMNRVARKVGGPREKEAMRRIIQALESKIS , and I need its recorded soluble on expression in E. coli.
A) not soluble

Q) Same thing, different sequence: MGSDKIHHHHHHMIVTEHSTRPLGEEGLANYVQRLRGQLSLTQKELSFKAGIHIQTIRKIEGGQTNRLNQKAKGGLAAALGIPPEYLDAAAKKVSPETITTLKFCPKCWTPGTTPDQMWTDLRSKYCFACGTALRNRCVSCNEPIMSLKFKFCPYCGANYKQNQTTS
A) not soluble

Q) Another sequence: YPFYAQYNYDSPREATGKIVCANCHLAKKTVEIEVPQAVLPDTVFKAVVKVPYDLDIQQVQADGSPSGLNVGAVLMLPEGFKLAPPERVDEELMEEVGDFYYLVTPYSETDENILLAGPLPGEDYQEMIFPILSPNPATDAGVYFGKYSIHLGGNRGRGQVYPTGELSNNNAFSASIAGTIAAIEDNGFGFDVTIQPEDGDAVVTSILPGPELIVAVGDTVEAGQLLTTNPNVGGFGQMDSEIVLQSSS
A) soluble

---

- Test Summary: soluble on expression in E. coli; label from the status in PepcDB or PDB records
Measured Property: soluble on expression in E. coli

The following sequences have reported results that may help.
Sequence Chain: MIDSIRVEGFRGLKELELSSLRRINVIVGRNNSGKSTLLEALSLFLGSSDPGTFGNVLHEILIWRGWYGIQTVDDLFYNGGDSFSISSTGKTLEALNSKHSLEFKLNGEPFYKIDRESIRRLASQAVLLARFSPKENFEFLTPLTFRRFGYAESLYSYAYERKVVKDSIKVLNEAYPEVEGFSPLLKEDNWVLYVETKYGVYPYYLMGEGFKSAMIISFLSSLLRDGVLLIDSAEAFHHPKSLKVMIQTLVRGSEKNNVQVFLTTHSLELLDLMLEMGRDGFVIYMKNVEGRIEVESIEFQRASELRESIGVDLRGFLEHHHHHH
Data Value: soluble
--
Sequence Chain: MGSDKIHHHHHHMFMVKITILSPEGRSCSVWSLKNEIEKLGAKCDIFLLSSPENLMSHDFKLETDLIHSRCGIGDYFDRLTLYSWQFINALEVEGCRFINPIKTLYLTSDKFKCIKLLAKNKIKTPKTALIRDYEDAVKFIEKYNLRFPVVIKNSFSKCGLKVFMARNYDELKQLTKNAIWEGKLIQEFIDFKENDLYRDMRILVVDGEVVGGYRRVSRDFRTNLYLGNVVEKLNIDEELEELALKCADLSEAVILGVDILPTKDNYYVIELNSSPGTKGFRDIGINADKKIAEALVRYAKS
Data Value: not soluble
--
Sequence Chain: MAVLAALLRSGARSRSPLLRRLVQEIRYVERSYVSKPTLKEVVIVSATRTPIGSFLGSLSLLPATKLGSIAIQGAIEKAGIPKEEVKEAYMGNVLQGGEGQAPTRQAVLGAGCDGGRWDGEHVHVPYVMNRGSTPYGGVKLEDLIVKDGLTDVYNKIHMGSCAENTAKKLNIARNEQDAYAINSYTRSKAAWEAGKFGNEVIPVTVTVKGQPDVVVKEDEEYKRVDFSKVPKLKTVFQKENGTVTAANASTLNDGAAALVLMTADAAKRLNVTPLARIVGKARRGGSHL
Data Value: not soluble
--
Sequence Chain: LENDRTTFRIRNLDSGEIIWSGMGAVYPVYSPSFDHAADAFAFAFSSPADPPEIHLLRDAETKSSINSHLDGVSPYPAEIVEWKAKDGEDLYGILRLIDPKNPLIVYIHGGPTSFSYASFLDRTSIYLGYGFNVFAPNYRGSVGKGRRYAELNVGDLGGKDFDDVISGIEFLKNTGKIATDRIYITGGSYGGYMSALAVMKTDIFRASVSLFGISDWVSFHGVSNLHLWDRLHMDADPWAFKKYDEYSPIRIMHEPKTPTLLMHGIKDPYVPIGQYYEFYRFLKEKNCEVRMIVFPREGHGFTEKEHIRRQYMETIRFMKDH
Data Value: not soluble
--
Sequence Chain: ADTYAATRYPVILVHGLAGTDKFANVVDYWYGIQSDLQSHGAKVYVANLSGFQSDDGPNGRGEQLLAYVKQVLAATGATKVNLIGHSQGGLTSRYVAAVAPQLVASVTTIGTPHRGSEFADFVQDVLKTDPTGLSSTVIAAFVNVFGTLVSSSHNTDQDALAALRTLTTAQTATYNRNFPSAGLGAPGSCQTGAATETVGGSQHLLYSWGGTAIQPTSTVLGVTGATDTSTGTLDVANVTDPSTLALLATGAVMINRASGQNDGLVSRCSSLFGQVISTSYHWNHLDEINQLLGVRGANAEDPVAVIRTHVNRLKLQGV
Data Value: soluble

In the following, a different sequence is considered.
Q) Which soluble on expression in E. coli reading was recorded for the sequence PQKIFTPSAEIVKYTKIIAMEKLYAVFTDYEHDKVSRDEAVNKIRLDTEEHLKEKFPEVDQFEIIESFNIVAKEVFRSIILNEYKRCDGRD ?
A) soluble
